test system: LXFL 529; assay: NCI tumour cell line growth inhibition, 48 h
Activity calls are given as the source filed them. Rule as the data show it: active = GI50 up to about 1.1 µM and inactive = higher.
One label from this list, please: y (active), n (inactive)

Previously resolved entries follow.
{"molecule": "N#CCC(=O)N/N=C1/C(=O)N(c2ccc(Cl)cc2)C(=O)C(=O)C1c1nc2ccccc2s1 (centres undefined)", "measured_target": "LXFL 529", "answer_label": "n"}
{"molecule": "CC#Cc1c(C#CC)c(OC)c2c(c1OC)C(=O)c1ccccc1C2=O", "measured_target": "LXFL 529", "answer_label": "n"}
{"molecule": "COc1cc2cc(c1Cl)N(C)C(=O)C[C@H](OC(=O)[C@H](C)N(C)C(C)=O)[C@]1(C)O[C@H]1[C@H](C)[C@@H]1C[C@@](O)(NC(=O)O1)[C@H](OC)/C=C/C=C(/C)C2", "measured_target": "LXFL 529", "answer_label": "y"}

-- ask Per the records of this test, what outcome belongs to Cc1cc2c(C)nn(Cc3ccccc3)c2c(C(=O)O)c1C ?
-- reply n
